molecular target: Dual specificity mitogen-activated protein kinase kinase 1 (Homo sapiens, UniProt Q02750); test: Inhibition of Dual specificity mitogen-activated protein kinase kinase in coupled activated Raf/MEK assay
Sequence (Q02750 whole entry): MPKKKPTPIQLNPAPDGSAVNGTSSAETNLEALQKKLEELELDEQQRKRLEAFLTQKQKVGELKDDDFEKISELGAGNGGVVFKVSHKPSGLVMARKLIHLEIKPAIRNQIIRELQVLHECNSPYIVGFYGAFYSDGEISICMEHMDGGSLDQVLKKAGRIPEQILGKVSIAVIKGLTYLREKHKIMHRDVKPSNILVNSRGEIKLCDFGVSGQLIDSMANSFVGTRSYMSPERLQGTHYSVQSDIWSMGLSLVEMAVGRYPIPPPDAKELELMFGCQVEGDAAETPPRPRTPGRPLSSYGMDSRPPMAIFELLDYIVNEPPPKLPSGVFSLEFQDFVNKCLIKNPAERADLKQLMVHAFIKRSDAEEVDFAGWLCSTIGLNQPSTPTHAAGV
MEASUREMENT LABEL: IC50
// unit must come after the numeric part

Input line: Quick one: IC50 of COc1cc2c(Nc3ccc(CCc4ccccc4)cc3)c(C#N)cnc2cc1OCCCN1CCOCC1 ?
Output line: 33 nM

----------
Give measured pIC50 for each item. Keep answers brief.
target: Dual specificity mitogen-activated protein kinase kinase 1 (Homo sapiens, UniProt Q02750); experiment: Inhibitory activity against Dual specificity mitogen-activated protein kinase kinase using direct MEK assay (which by-passes the need for activated Raf by using an activated GST-MEK)
The scale used: pIC50 is minus the common logarithm of the concentration in molar units.

Input line: Identify the measured pIC50 of COc1cc2c(Nc3ccc(CC4CCCCC4)cc3)c(C#N)cnc2cc1OCCCN1CCOCC1 for Dual specificity mitogen-activated protein kinase kinase 1 (Homo sapiens, UniProt Q02750).
Output line: 5.48

Input line: What do you get for COc1cc2c(Nc3ccc(Sc4ccccc4)cc3)c(C#N)cnc2cc1OCCCN1CCOCC1 ?
Output line: 8.24

Input line: What do you get for COc1cc2ncc(C#N)c(Nc3ccc(Oc4ccc(Cl)cc4)cc3)c2cc1OC ?
Output line: 6.68

Input line: What do you get for COc1cc2c(Nc3ccc(Cc4ccccc4)cc3)c(C#N)cnc2cc1OCCCN1CCOCC1 ?
Output line: 7.85

Input line: What do you get for COc1cc2ncc(C#N)c(Nc3ccc(O)cc3)c2cc1OC ?
Output line: 5.66

Input line: What do you get for COc1ccc(Nc2c(C#N)cnc3cc(OCCCN4CCOCC4)c(OC)cc23)cc1 ?
Output line: 6.60

Input line: What do you get for COc1cc2c(Nc3ccc(SC4CCCCC4)cc3)c(C#N)cnc2cc1OCCCN1CCOCC1 ?
Output line: 6.52

Input line: What do you get for COc1cc2ncc(C#N)c(Nc3ccc(SC)cc3)c2cc1OC ?
Output line: 5.89

Input line: What do you get for COc1cc2ncc(C#N)c(Nc3ccc(Nc4ccccc4)cc3)c2cc1OC ?
Output line: 5.92

Input line: What do you get for COc1cc2c(Nc3ccc(Cc4cccs4)cc3)c(C#N)cnc2cc1OCCCN1CCOCC1 ?
Output line: 7.70

----------
molecular target: Dual specificity mitogen-activated protein kinase kinase 1 (Homo sapiens, UniProt Q02750); assay: Inhibitory activity against Dual specificity mitogen-activated protein kinase kinase using coupled MEK assay (which uses activated Raf to activate an inactivate GST-MEK)
pIC50: −log10 of the molar value.
Short version: pIC50 at least 8 is satisfied, less is not satisfied.

Input line: Please tell me: is the compound COc1cc2ncc(C#N)c(Nc3ccc(O)cc3)c2cc1OC at or over 8 in terms of pIC50?
Output line: not satisfied

Input line: What do you get for COc1cc2c(Nc3ccc(OC4CCCCC4)cc3)c(C#N)cnc2cc1OCCCN1CCOCC1 ?
Output line: not satisfied

Input line: What do you get for COc1cc2c(Nc3ccc(Cc4ccco4)cc3)c(C#N)cnc2cc1OCCCN1CCOCC1 ?
Output line: not satisfied

Input line: What do you get for COc1cc2c(Nc3ccc(Cc4ccccc4)cc3)c(C#N)cnc2cc1OCCCN1CCOCC1 ?
Output line: satisfied

Input line: What do you get for COc1cc2ncc(C#N)c(Nc3ccc(Oc4ccc(Cl)cc4)cc3)c2cc1OC ?
Output line: not satisfied

Input line: What do you get for COc1cc2c(Nc3ccc(Cc4ccsc4)cc3)c(C#N)cnc2cc1OCCCN1CCOCC1 ?
Output line: satisfied

Input line: What do you get for COc1cc2c(Nc3ccc(Oc4ccncc4)cc3)c(C#N)cnc2cc1OCCCN1CCOCC1 ?
Output line: not satisfied

Input line: What do you get for COc1cc2ncc(C#N)c(Nc3ccc(Nc4ccccc4)cc3)c2cc1OC ?
Output line: not satisfied

Input line: What do you get for COc1cc2c(Nc3ccc(Cc4cccs4)cc3)c(C#N)cnc2cc1OCCCN1CCOCC1 ?
Output line: satisfied

Input line: What do you get for COc1cc2c(Nc3ccc(Oc4ccccc4)cc3)c(C#N)cnc2cc1OCCCN1CCOCC1 ?
Output line: satisfied

Input line: What do you get for COc1cc2ncc(C#N)c(Nc3ccc(SC)cc3)c2cc1OC ?
Output line: not satisfied

Input line: What do you get for COc1ccc(Nc2c(C#N)cnc3cc(OCCCN4CCOCC4)c(OC)cc23)cc1 ?
Output line: not satisfied

Input line: What do you get for COc1ccc(Nc2c(C#N)cnc3cc(OC)c(OC)cc23)cc1 ?
Output line: not satisfied

Input line: What do you get for COc1cc2ncc(C#N)c(Nc3ccccc3Oc3ccccc3)c2cc1OC ?
Output line: not satisfied

Input line: What do you get for COc1cc2c(Nc3ccc(Sc4ccccc4)cc3)c(C#N)cnc2cc1OCCCN1CCOCC1 ?
Output line: satisfied

Input line: What do you get for COc1cc2c(Nc3ccc(SC4CCCCC4)cc3)c(C#N)cnc2cc1OCCCN1CCOCC1 ?
Output line: not satisfied

Input line: What do you get for COc1cc2c(Nc3ccc(CC4CCCCC4)cc3)c(C#N)cnc2cc1OCCCN1CCOCC1 ?
Output line: not satisfied

----------
target: Dual specificity mitogen-activated protein kinase kinase 1 (Homo sapiens, UniProt Q02750); experiment: Inhibitory activity against Dual specificity mitogen-activated protein kinase kinase using direct MEK assay (which by-passes the need for activated Raf by using an activated GST-MEK)
Give measured pIC50 for each item. Keep answers brief.
The scale used: pIC50 is minus the common logarithm of the concentration in molar units.

Input line: Quick one: pIC50 of COc1cc2c(Nc3ccc(Cc4ccoc4)cc3)c(C#N)cnc2cc1OCCCN1CCOCC1 ?
Output line: 7.37

Input line: What do you get for COc1cc2c(Nc3ccc(Cc4ccsc4)cc3)c(C#N)cnc2cc1OCCCN1CCOCC1 ?
Output line: 7.64

Input line: What do you get for COc1cc2c(Nc3ccc(OC4CCCCC4)cc3)c(C#N)cnc2cc1OCCCN1CCOCC1 ?
Output line: 6.49

Input line: What do you get for COc1cc2c(Nc3ccc(Cc4ccco4)cc3)c(C#N)cnc2cc1OCCCN1CCOCC1 ?
Output line: 7.18

Input line: What do you get for COc1ccc(Nc2c(C#N)cnc3cc(OC)c(OC)cc23)cc1 ?
Output line: 5.52

Input line: What do you get for COc1cc2c(Nc3ccc(Oc4ccncc4)cc3)c(C#N)cnc2cc1OCCCN1CCOCC1 ?
Output line: 7.09

----------
biological target: Dual specificity mitogen-activated protein kinase kinase 1 (Homo sapiens, UniProt Q02750); experiment: Inhibition of Dual specificity mitogen-activated protein kinase kinase in direct activated MEK assay
MEASUREMENT LABEL: pIC50
The scale used: pIC50 is minus the common logarithm of the concentration in molar units.

Input line: Quick one: pIC50 of COc1cc2c(Nc3ccc(CCc4ccccc4)cc3)c(C#N)cnc2cc1OCCCN1CCOCC1 ?
Output line: 6.82
